Consider the following binders and their measured IC50 readings.
targetSystem: T1, SARS-CoV-2 RBD-mFc (SARS-CoV-2, UniProt P0DTC2 319-541)
T1 construct: range 319-541
measurementDescription: competition ELISA: RBD-mFc on coated ACE2-His
Enter your answer as a number in nM; do not include the unit.

binder	IC50 / nM
SA4057 (antibody, V domains shown) VH: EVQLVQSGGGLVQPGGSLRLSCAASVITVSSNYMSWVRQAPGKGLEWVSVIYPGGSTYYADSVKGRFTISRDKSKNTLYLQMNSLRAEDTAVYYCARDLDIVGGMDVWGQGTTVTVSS VL: QLVLTQPPSVSGAPGQRVTISCTGSSSNIGAPHDVHWYQQLPGTAPRLLIYANNNRPSGVPDRFSGSKSGTSASLAITGLQDEDEADYYCQSYDSSLRAYVFGTGTKVTVL	4.81

The record that follows has no IC50 shown yet.
Which measured IC50 value corresponds to SA4040 (antibody, V domains shown) VH: EVQLVQSGAEVKKPGASVKVSCKASGYTFTGYYMHWARQAPGQGLEWMGWINPNSGGTNYAQKFQGRVTMTRDTSITTAYMELSRLTSDDTAVYYCARDQAFSMVRGVTDYWGQGTLVTVSS VL: QSALTQPPSASGSPGQSVIISCTGSSSDVGGYNYVAWYQQYPGAAPKLIISEVTKRPSGVPDRFSGSKSGNTASLTISGLQAEDEANYYCSSYAGDNTWIFGGGTKLTVL ?
25.3

Values were extracted from patent KR20220054080A.
